assay: PK/PD study ATL-4: plasma and tissue concentrations after single IV injection, nontumored mice; format: in vivo, female athymic NCr-nu/nu mice; details: female, athymic NCr-nu/nu, mouse, plasma; paclitaxel 18.9 mg/kg single IV; read-out: apparent terminal elimination half-life of paclitaxel in plasma (converted)
measured-parameter: half-life (h)
# number only, unit h dropped from output

half-life measured on CC(=O)O[C@H]1C(=O)[C@@]2(C)[C@H]([C@H](OC(=O)c3ccccc3)[C@]3(O)C[C@H](OC(=O)[C@H](O)[C@@H](NC(=O)c4ccccc4)c4ccccc4)C(C)=C1C3(C)C)[C@]1(OC(C)=O)CO[C@@H]1C[C@@H]2O = 1
